biological target: human ether-à-go-go-related gene (hERG) potassium channel (human, UniProt Q12809); assay: primary screen, population patch clamp on CHO cells stably expressing hERG; higher = less effect of the substance;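 note: peak tail current of the secondary pulse compared with the same well before compound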
Sequence (Q12809 whole entry, looked up): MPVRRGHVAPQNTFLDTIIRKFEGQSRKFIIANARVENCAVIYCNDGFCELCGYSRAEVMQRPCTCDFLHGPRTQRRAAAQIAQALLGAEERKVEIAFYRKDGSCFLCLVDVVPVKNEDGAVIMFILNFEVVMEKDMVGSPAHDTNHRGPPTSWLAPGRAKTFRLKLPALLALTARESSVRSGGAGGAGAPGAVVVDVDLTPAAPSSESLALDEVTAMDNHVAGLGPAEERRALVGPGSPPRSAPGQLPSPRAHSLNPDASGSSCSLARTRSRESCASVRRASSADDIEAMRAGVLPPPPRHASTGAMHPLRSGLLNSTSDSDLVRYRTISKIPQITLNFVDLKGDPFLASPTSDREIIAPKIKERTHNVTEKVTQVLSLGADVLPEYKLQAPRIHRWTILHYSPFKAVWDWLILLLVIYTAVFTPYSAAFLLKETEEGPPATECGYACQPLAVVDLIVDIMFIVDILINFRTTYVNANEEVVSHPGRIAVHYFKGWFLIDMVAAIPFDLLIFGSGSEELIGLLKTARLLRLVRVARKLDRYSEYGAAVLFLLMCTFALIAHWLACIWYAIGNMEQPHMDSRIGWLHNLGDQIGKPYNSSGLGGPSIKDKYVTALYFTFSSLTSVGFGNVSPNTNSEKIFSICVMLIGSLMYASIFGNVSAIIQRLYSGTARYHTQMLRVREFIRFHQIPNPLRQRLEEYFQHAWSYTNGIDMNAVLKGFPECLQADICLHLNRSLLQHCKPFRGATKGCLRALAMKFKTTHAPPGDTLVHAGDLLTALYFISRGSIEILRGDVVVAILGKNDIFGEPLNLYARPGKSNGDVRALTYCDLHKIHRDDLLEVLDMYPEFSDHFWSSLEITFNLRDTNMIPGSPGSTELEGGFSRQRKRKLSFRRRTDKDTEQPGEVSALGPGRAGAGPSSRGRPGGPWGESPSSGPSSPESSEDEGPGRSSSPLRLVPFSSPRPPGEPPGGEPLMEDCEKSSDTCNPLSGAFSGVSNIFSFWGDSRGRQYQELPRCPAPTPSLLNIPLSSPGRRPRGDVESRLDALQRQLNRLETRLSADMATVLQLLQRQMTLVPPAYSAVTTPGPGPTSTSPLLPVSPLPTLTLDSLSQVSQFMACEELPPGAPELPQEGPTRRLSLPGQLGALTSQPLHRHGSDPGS
In all, about 310,000 compounds went through this assay and about 14,000 (4.5%) showed an effect of 50% or more. The effect is printed as a negative number. The full list was thinned out, with strong results kept by preference.
quantity: hERG current change (%, negative = inhibition) at 10uM (%)

[
  {
    "compound": "Cc1c(C)c(C)c(CN2CCSCC2)c(C)c1C",
    "readout-unit": "%",
    "value-observed": 18.4
  },
  {
    "compound": "COc1ccccc1NC(=S)N1CC(C)OC(C)C1 (stereo not shown)",
    "readout-unit": "%",
    "value-observed": 19.5
  },
  {
    "compound": "COc1ccc(OCCSc2nnc(CCNC(=O)c3ccc(OC)cc3)n2C)cc1",
    "readout-unit": "%",
    "value-observed": -6.83
  },
  {
    "compound": "CC1CN=C(Nc2ccccc2)S1 (stereo not shown)",
    "readout-unit": "%",
    "value-observed": 7.23
  },
  {
    "compound": "CCn1c(COc2ccc(Cl)cc2)nnc1SCc1ccc(C#N)cc1",
    "readout-unit": "%",
    "value-observed": -70.5
  },
  {
    "compound": "COc1ccc(-n2c(COc3ccc(C)cc3)nnc2SCc2ccc(C#N)cc2)cc1",
    "readout-unit": "%",
    "value-observed": -29.6
  },
  {
    "compound": "Nc1cc(=O)[nH]c(SCc2nnnn2-c2ccc(Cl)cc2)n1",
    "readout-unit": "%",
    "value-observed": 4.04
  }
]
